Cited source for all entries: PubChem BioAssay (NCI)

# Tested on: SK-MEL-5 melanoma
# experimental details: NCI tumour cell line growth inhibition, 48 h; in the data active means GI50 below about 0.43 µM; inactive means the rest
Valid outcomes are listed here; reply with one: TRUE (active), FALSE (inactive)

[
  {
    "molecule": "CCCCCCCCCCCCNC(=O)[C@H]1CSC(c2cc3ccccc3s2)N1 (stereo not given in full)",
    "answer label": "FALSE"
  },
  {
    "molecule": "CCN(CC)c1ccc(C2CC(c3cc(OC)c(OC)c(OC)c3)=NN2)cc1 (stereo not given)",
    "answer label": "FALSE"
  }
]

In this assay, the call recorded for CC(C)CC1C(=O)N2CCC[C@H]2C2(O)O[C@](NC(=O)C3C=C4c5cccc6[nH]c(Br)c(c56)C[C@H]4N(C)C3)(C(C)C)C(=O)N12 (stereo not given in full) was what? FALSE

In this assay, the call recorded for Cc1ccc(S(=O)(=O)Oc2ccc([N+](=O)[O-])cc2[N+](=O)[O-])cc1 was what? FALSE

In this assay, the call recorded for O=C(N/N=C/c1ccccc1O)C(O)(c1ccccc1)c1ccccc1 was what? FALSE

In this assay, the call recorded for COc1ccc(CCN2CCCN3C2=Nc2ccccc2S3(=O)=O)cc1 was what? TRUE

In this assay, the call recorded for Cc1ccc2c(c1)C(C)Cc1c(ncnc1-n1cnc3cc(C)ccc31)N2C (stereo not given) was what? TRUE

In this assay, the call recorded for O=Nc1ccc(O)c2ccccc12 was what? FALSE

In this assay, the call recorded for CC(C)CCSC1=CC(=O)c2ccccc2C1=O was what? FALSE

In this assay, the call recorded for Cc1ncc(C(=O)Nc2ccc(CN3CCN(C)CC3)c(C(F)(F)F)c2)cc1C#Cc1cnc(N)c2cnccc12 was what? TRUE

----------
# Tested on: M19-MEL melanoma
# experimental details: NCI tumour cell line growth inhibition, 48 h
TGI: recorded values

Field: example entries. Status: answers known.
[
  {
    "compound": "COc1ccc2c(c1O)C(=O)C(CCC(=O)O)CC2 (stereo unspecified)",
    "TGI": "> 100 µM"
  },
  {
    "compound": "CC(C)N(C(=O)C1(C)CC1)C(C)C",
    "TGI": "> 100 µM"
  },
  {
    "compound": "COc1ccc(/C=C/C(=O)C(C)(C)CN2CCCCC2)cc1",
    "TGI": "33.8 µM"
  },
  {
    "compound": "Cc1c(-c2ccccc2)c(=O)oc2ccc(Cl)cc12",
    "TGI": "> 100 µM"
  },
  {
    "compound": "CCCCCCCCCCCCCCCCOCC(CN(C)CCN(C)C)OCCCCCCCCCCCCCCCC (stereo unspecified)",
    "TGI": "> 100 µM"
  },
  {
    "compound": "Nc1nc(Cl)cc(NCCCNc2cc(Cl)nc(N)n2)n1",
    "TGI": "> 100 µM"
  }
]

The measured TGI associated with CC(C)C1C(=O)NC(CO)Cc2c[nH]c3c(C(c4c[nH]c5ccccc45)C(O)CO)ccc(c23)N1C (stereo unspecified) reads > 100 µM

The measured TGI associated with COc1ccc(/C=N/N=C(\N)NO)c(Cl)c1O reads 53.3 µM

The measured TGI associated with CSc1nc(NC2OCC(OC(C)=O)C(OC(C)=O)C2OC(C)=O)c(N=C(C)C(C)=O)c(=O)n1C (stereo unspecified) reads > 100 µM
